Listed here are molecules together with their documented IC50.
ASSAYED_TARGET: Voltage-gated L-type calcium channel (Rattus norvegicus, UniProt P22002+Q02485+P27732)
ASSAY_PROCEDURE: Affinity to bind dihydropyridine receptor (DHP receptor) by inhibiting the radioligand [3H]nitrendipine
Assay type: protein assay

Example results:
• CCOC(=O)C1=C(C[S+]([O-])c2ccccc2)N(C)C(C)=C(C#N)C1c1ccccc1C(F)(F)F (stereo not drawn) = > 1000 nM
• CCO/C(O)=C1\C(CS(=O)(=O)c2ccccc2)=NC(C)=C(C#N)C1c1ccccn1 (stereo not drawn) = > 1000 nM
• CCO/C(O)=C1\C(C[S+]([O-])c2ccccn2)=NC(C)=C(C#N)C1c1ccccc1C(F)(F)F (stereo not drawn) = 1900 nM
• CO/C(O)=C1\C(C[S+]([O-])c2ccccc2)=NC(C)=C(C#N)C1c1ccccc1C(F)(F)F (stereo not drawn) = > 1000 nM
• CCOC(=O)C1=C(C[S+]([O-])c2ccccc2)NC(C)=C(C#N)C1c1cccc([N+](=O)[O-])c1 (stereo in doubt; 32a) = > 1000 nM
• CCO/C(O)=C1\C(CSc2ccc(Cl)cc2)=NC(C)=C(C#N)C1c1ccccc1C(F)(F)F (stereo not drawn) = 100 nM
• CCO/C(O)=C1\C(C[S+]([O-])c2ccccc2Cl)=NC(C)=C(C#N)C1c1ccccc1C(F)(F)F (stereo not drawn) = > 1000 nM

Given the molecule CCO/C(O)=C1\C(CS(=O)(=O)c2ccccc2)=NC(C)=C(C#N)C1c1ccccc1 (stereo not drawn) , what is its reported IC50?
480 nM
